Tested on: SK-MEL-2
Experiment: NCI tumour cell line growth inhibition, 48 h
Activity calls are given as the source filed them. Cut-off read from the data, not from the text of the source: active = GI50 up to about 1.1 µM and inactive = higher.
experimental endpoint: GI50

Known results for molecules:
CCN(CC)CCNCc1cc(Cl)cc2c1OCOC2; > 10 µM (inactive)
C/N=N/N(C)C(=O)NC; > 100 µM (inactive)
CCOC(=O)c1cc(-c2ccc(OC)cc2)c([N+](=O)[O-])n1C; > 10 µM (inactive)
CN1C(=O)C(C)(C)NS1(=O)=O; > 100 µM (inactive)

Sure, the documented GI50 for "C#CCn1c(=O)c(Cl)cn(/C(=C/C(=O)OCC)C(=O)OCC)c1=O" is 17.4 µM (inactive)

Sure, the documented GI50 for CN1C(=O)CN2C(Cl)(Cl)C2(c2ccccc2)c2cc(Cl)ccc21 (stereo unspecified) is > 100 µM (inactive)
